target: human recombinant HDAC6 (Homo sapiens); construct: purchased Calbiochem Inc. 382180; test: HDAC6 enzyme activity inhibition (HDAC Fluorimetric Drug Discovery Kit); format: biochemical; conditions: HDAC1 IC50 / HDAC6 IC50
Note to self: values exactly at 1000 fold are T. So HDAC6 selectivity (fold) at or above 1000 fold is T, below is F.

CC(=O)N1CC(c2cn(Cc3ccc(-c4nnc(C(F)F)o4)cn3)nn2)C1 : F

Here's the next entry for you.
Identify whether the reported HDAC6 selectivity (fold) of the following compound is 1000 fold or greater: FC(F)c1nnc(-c2ccc(Cn3cc(-c4cccc(N5CCN(C6COC6)CC5)c4)nn3)cc2)o1
F

---

target: human recombinant HDAC6 (Homo sapiens); construct: purchased Calbiochem Inc. 382180; assay: HDAC6 enzyme activity inhibition (HDAC Fluorimetric Drug Discovery Kit); assay type: biochemical; settings: HDAC6 over HDAC1
quantity.name: HDAC6 selectivity (fold)
Report the value in fold with no unit label.

# annotated cases, reported HDAC6 selectivity (fold) shown
Fc1cc(-c2nnc(C(F)F)o2)ccc1Cn1cc(-c2cccc(N3CCN(CC4CC(F)(F)C4)CC3)c2F)nn1 : 744
Fc1cc(-c2nnc(C(F)F)o2)ccc1Cn1cc(-c2ccc(CNC3CCCC3)cc2)nn1 : 3164

// HDAC6 selectivity (fold) value for Fc1cc(-c2nnc(C(F)F)o2)ccc1Cn1cc(-c2cccc3c2CN(C2COC2)C3)nn1 : 539

---

target: human recombinant HDAC6 (Homo sapiens); construct: purchased Calbiochem Inc. 382180; experiment: HDAC6 enzyme activity inhibition (HDAC Fluorimetric Drug Discovery Kit); assay type: biochemical; conditions: HDAC1 IC50 / HDAC6 IC50
Note to self: values exactly at 900 fold are condition met. So HDAC6 selectivity (fold) at or above 900 fold is condition met, below is condition not met.

Solved entries (count: 2):
CC(C)(C)OC(=O)N1CCC(c2cn(Cc3ccc(-c4nnc(C(F)F)o4)cc3F)nn2)C1 (stereo not shown) [Compound 3734] : condition not met
OCCCCc1cn(Cc2ccc(-c3nnc(C(F)F)o3)cn2)nn1 [Compound 3834] : condition not met

Identify whether the reported HDAC6 selectivity (fold) of the following compound is 900 fold or greater: FC(F)c1nnc(-c2ccc(Cn3cc(C4(F)CCN(C5COC5)CC4)nn3)nc2)o1 [Compound 4008]
condition not met

Identify whether the reported HDAC6 selectivity (fold) of the following compound is 900 fold or greater: CC(C)(C)OC(=O)N1CCCC(c2cn(Cc3ccc(-c4nnc(C(F)F)o4)cn3)nn2)C1 (stereo not shown) [Compound 3961]
condition not met

Identify whether the reported HDAC6 selectivity (fold) of the following compound is 900 fold or greater: CCC(=O)N1CCN(c2cccc(-c3cn(Cc4ccc(-c5nnc(C(F)F)o5)cn4)nn3)c2)CC1 [Compound 3991]
condition met

Identify whether the reported HDAC6 selectivity (fold) of the following compound is 900 fold or greater: CC(C)(F)C(=O)N1CCC(c2cn(Cc3ccc(-c4nnc(C(F)F)o4)cn3)nn2)CC1 [Compound 3894]
condition not met

Identify whether the reported HDAC6 selectivity (fold) of the following compound is 900 fold or greater: FC(F)c1nnc(-c2ccc(Cn3cc([C@@H]4CCCN4C4CC5(COC5)C4)nn3)nc2)o1 [Compound 4027]
condition not met

Identify whether the reported HDAC6 selectivity (fold) of the following compound is 900 fold or greater: CN(C(=O)C(C)(C)C)c1cccc(-c2cn(Cc3ccc(-c4nnc(C(F)F)o4)cn3)nn2)c1 [Compound 3889]
condition met

Identify whether the reported HDAC6 selectivity (fold) of the following compound is 900 fold or greater: FC(F)c1nnc(-c2ccc(Cn3cc(-c4cccc(CN5CCCC5)c4)nn3)nc2)o1 [Compound 3966]
condition met

Identify whether the reported HDAC6 selectivity (fold) of the following compound is 900 fold or greater: Fc1ccc(-c2cn(Cc3ccc(-c4nnc(C(F)F)o4)cc3)nn2)cc1N1C[C@@H]2C[C@H]1CN2 [Compound 4398]
condition met

Identify whether the reported HDAC6 selectivity (fold) of the following compound is 900 fold or greater: COC(=O)Nc1cccc(-c2cn(Cc3ccc(-c4nnc(C(F)F)o4)cc3F)nn2)c1 [Compound 3776]
condition met

Identify whether the reported HDAC6 selectivity (fold) of the following compound is 900 fold or greater: FC(F)c1nnc(-c2ccc(Cn3cc(-c4cccc(NC5CCCCC5)c4)nn3)nc2)o1 [Compound 3828]
condition met

Identify whether the reported HDAC6 selectivity (fold) of the following compound is 900 fold or greater: CCCN1CCC(Nc2ccc(F)c(-c3cn(Cc4ccc(-c5nnc(C(F)F)o5)cc4F)nn3)c2)CC1 [Compound 4438]
condition met

Identify whether the reported HDAC6 selectivity (fold) of the following compound is 900 fold or greater: FC(F)c1nnc(-c2ccc(Cn3cc(-c4ccc5cc[nH]c5c4)cn3)nc2)o1 [Compound 4208]
condition met

Identify whether the reported HDAC6 selectivity (fold) of the following compound is 900 fold or greater: CC(C)(F)C(=O)Nc1cccc(-c2cn(Cc3ccc(-c4nnc(C(F)F)o4)cn3)nn2)c1 [Compound 3987]
condition met

Identify whether the reported HDAC6 selectivity (fold) of the following compound is 900 fold or greater: Fc1cnccc1-c1cn(Cc2ccc(-c3nnc(C(F)F)o3)cn2)nn1 [Compound 4184]
condition met

---

Biological target: human recombinant HDAC6 (Homo sapiens, UniProt Q9UBN7)
Construct: purchased Calbiochem Inc. 382180
Assay: HDAC6 enzyme activity inhibition (HDAC Fluorimetric Drug Discovery Kit)
Type: biochemical
Conditions: human recombinant HDAC6, same protocol as HDAC1
Procedure: An experiment was conducted to identify the selectivity of the compound represented by formula I of the present invention to HDAC6 through an experiment on HDAC1 and HDAC6 enzyme activity inhibition. […]
Recorded IC50 values for a group of compounds are listed next.
Report the value in µM with no unit label.

# annotated cases, reported IC50 shown
Fc1cc(-c2nnc(C(F)F)o2)ccc1Cn1cc(-c2ccc3c(c2)CN(CC2(F)CC2)C3)nn1 : 0.0874
Fc1cc(-c2nnc(C(F)F)o2)ccc1Cn1cc(-c2ccccc2CNC2CCC2)nn1 : 0.29
Fc1cc(-c2nnc(C(F)F)o2)cnc1Cn1cc(-c2ccc(CN3CCC3)cn2)nn1 : 0.0824
Fc1cc(-c2nnc(C(F)F)o2)ccc1Cn1cc(-c2ccc(CN3CCCCC3)cc2)nn1 : 0.0143
FC(F)c1nnc(-c2ccc(Cn3cc(-c4ccc(CNC5COC5)cc4)nn3)cc2)o1 : 0.0733

Entry Fc1cc(-c2nnc(C(F)F)o2)ccc1Cn1cc(-c2cccc(Br)n2)nn1 under human recombinant HDAC6 (Homo sapiens, UniProt Q9UBN7) had IC50 of 0.0444

Entry FC(F)c1nnc(-c2ccc(Cn3cc(-c4ccc5c(c4)CN(C4COC4)C5)nn3)nc2)o1 under human recombinant HDAC6 (Homo sapiens, UniProt Q9UBN7) had IC50 of 0.0377

Entry FC(F)c1nnc(-c2ccc(Cn3cc(-c4cccc5c4CN(C4COC4)C5)nn3)nc2)o1 under human recombinant HDAC6 (Homo sapiens, UniProt Q9UBN7) had IC50 of 0.0755

---

Recorded log10 of IC50 values for a group of molecules are listed next.
target: human recombinant HDAC6 (Homo sapiens); construct: purchased Calbiochem Inc. 382180; experiment: HDAC6 enzyme activity inhibition (HDAC Fluorimetric Drug Discovery Kit); type: biochemical; conditions: human recombinant HDAC6; IC50 calculated with GraphPad Prism
On a log10 scale: recorded IC50, unit nM.

# annotated cases, reported log10 of IC50 shown
O=c1[nH]cccc1-c1cn(Cc2ccc(-c3nnc(C(F)F)o3)cn2)nn1 [Compound 3844] : 1.32
CN1CCN(c2ccc(F)c(-c3cn(Cc4ccc(-c5nnc(C(F)F)o5)cc4)nn3)c2)CC1 [Compound 4451] : 1.23

// log10 of IC50 value for FC(F)c1nnc(-c2ccc(Cn3cc(-c4ccc5c(CN6CCCC6)c[nH]c5c4)nn3)cc2)o1 [Compound 4108] : 0.93

// log10 of IC50 value for Fc1ccc(-c2cn(Cc3ccc(-c4nnc(C(F)F)o4)cn3)nn2)cc1F [Compound 3737] : 1.68

---

Target: human recombinant HDAC6 (Homo sapiens, UniProt Q9UBN7)
Construct: purchased Calbiochem Inc. 382180
Sequence (Q9UBN7 1-1215): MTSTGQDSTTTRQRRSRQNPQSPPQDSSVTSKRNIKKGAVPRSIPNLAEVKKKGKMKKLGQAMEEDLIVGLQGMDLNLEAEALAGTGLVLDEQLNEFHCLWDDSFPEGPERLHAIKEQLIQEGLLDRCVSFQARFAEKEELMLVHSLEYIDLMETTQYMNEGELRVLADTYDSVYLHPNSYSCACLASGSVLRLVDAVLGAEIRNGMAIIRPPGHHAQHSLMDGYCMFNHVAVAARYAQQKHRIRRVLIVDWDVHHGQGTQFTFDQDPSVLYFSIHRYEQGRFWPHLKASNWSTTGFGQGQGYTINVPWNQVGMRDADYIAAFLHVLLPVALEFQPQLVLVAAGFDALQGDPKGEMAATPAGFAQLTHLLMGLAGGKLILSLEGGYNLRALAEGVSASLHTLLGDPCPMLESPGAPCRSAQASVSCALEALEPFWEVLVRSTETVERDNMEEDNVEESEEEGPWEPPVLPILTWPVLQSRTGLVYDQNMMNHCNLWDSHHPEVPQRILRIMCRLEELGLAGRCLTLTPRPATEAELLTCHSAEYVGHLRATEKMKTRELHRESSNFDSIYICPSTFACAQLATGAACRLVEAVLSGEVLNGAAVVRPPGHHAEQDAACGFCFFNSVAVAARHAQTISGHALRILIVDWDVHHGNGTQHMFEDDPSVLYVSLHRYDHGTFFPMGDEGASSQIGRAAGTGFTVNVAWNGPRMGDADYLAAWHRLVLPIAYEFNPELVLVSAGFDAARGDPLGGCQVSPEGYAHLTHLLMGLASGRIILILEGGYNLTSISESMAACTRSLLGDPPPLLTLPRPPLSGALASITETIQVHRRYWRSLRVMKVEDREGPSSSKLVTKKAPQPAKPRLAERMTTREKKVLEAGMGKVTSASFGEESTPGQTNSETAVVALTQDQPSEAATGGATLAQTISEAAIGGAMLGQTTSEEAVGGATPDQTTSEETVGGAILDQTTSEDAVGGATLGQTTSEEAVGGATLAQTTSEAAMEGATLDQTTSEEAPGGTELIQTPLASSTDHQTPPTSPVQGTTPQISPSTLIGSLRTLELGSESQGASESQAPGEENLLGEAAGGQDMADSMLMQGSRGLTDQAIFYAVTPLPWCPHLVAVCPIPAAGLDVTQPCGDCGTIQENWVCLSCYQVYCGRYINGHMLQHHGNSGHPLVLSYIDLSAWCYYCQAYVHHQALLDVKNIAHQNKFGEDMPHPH
Test: HDAC6 enzyme activity inhibition (HDAC Fluorimetric Drug Discovery Kit)
Format: biochemical
Conditions: human recombinant HDAC6; IC50 calculated with GraphPad Prism
Recorded pIC50 values for a group of compounds are listed next.
Just so you know, pIC50 here is -log10 of the concentration in molar units; reply with that number alone.

Fc1cnccc1-c1cn(Cc2ccc(-c3nnc(C(F)F)o3)cn2)nn1 : 7.41
FC(F)c1nnc(-c2ccc(Cn3cc(-c4cccc(CN5CC6(COC6)C5)c4)nn3)nc2)o1 : 7.44
CN(C)CCC(=O)Nc1cccc(-c2cn(Cc3ccc(-c4nnc(C(F)F)o4)cn3)nn2)c1 : 7.54
Cc1ccncc1-c1cn(Cc2ccc(-c3nnc(C(F)F)o3)cn2)nn1 : 7.45
CC(C)(C)OC(=O)Nc1cccc(-c2cn(Cc3ccc(-c4nnc(C(F)F)o4)cn3)nn2)c1 : 7.55
O=c1ccc(-c2cn(Cc3ccc(-c4nnc(C(F)F)o4)cn3)nn2)c[nH]1 : 7.79
FC(F)c1nnc(-c2ccc(Cn3cc(-c4cccc(CN5CCC5)c4)nn3)cc2)o1 : 6.28
CC(C)N1CCN(c2cc(-c3cn(Cc4ccc(-c5nnc(C(F)F)o5)cc4)nn3)ccc2F)CC1 : 6.61
FC1CN(Cc2cccc(-c3cn(Cc4ccc(-c5nnc(C(F)F)o5)cc4)nn3)c2)C1 : 7.19
CN(C)Cc1cccc(-c2cn(Cc3ccc(-c4nnc(C(F)F)o4)cn3)nn2)c1 : 7.42

// pIC50 value for CC(C)N1CCC(c2cn(Cc3ccc(-c4nnc(C(F)F)o4)cn3)nn2)CC1 : 6.46

// pIC50 value for Fc1cc(-c2nnc(C(F)F)o2)ccc1Cn1cc(-c2ccc(F)c(N3CCN(C4CCC4)CC3)c2)nn1 : 6.82
